# assayOverview: AUC (0 to infinity) in Sprague-Dawley rat at 10 mg/kg, iv measured for 2880 mins by LC-MS/MS analysis
# Format: ADME, organism-based
# conditionParameters: in vivo
readoutKind: AUC(0-inf) (ng·h/mL)
Give your result in ng·h/mL as a bare value.

**Query** Which AUC(0-inf) is listed for CCCc1ccc(C(=O)Nc2cnc3ccccc3c2N2CCN(Cc3ccccc3)CC2)cc1 ?
**Result** 6070

----------
# assayOverview: Ratio of AUC in brain to plasma of ICR mouse at 10 mg/kg, IG measured at 10 to 240 mins by LC-MS/MS analysis
# Type: ADME, organism-based
# conditionParameters: po, time 10-240 min
readoutKind: Kp

**Query** Given the compound CCCc1ccc(C(=O)Nc2cnc3ccccc3c2N2CCN(Cc3ccccc3)CC2)cc1 , what is its reported Kp?
**Result** 1.96

----------
# assayOverview: Tmax in Sprague-Dawley rat at 10 mg/kg, IG measured for 2880 mins by LC-MS/MS analysis
# Format: ADME, organism-based
# conditionParameters: in vivo, po
readoutKind: Tmax (h)
Reply with just the number (in h).

**Query** Please give the measured Tmax for this compound: CCCc1ccc(C(=O)Nc2cnc3ccccc3c2N2CCN(Cc3ccccc3)CC2)cc1
**Result** 1

----------
# assayOverview: Tmax in brain of ICR mouse at 10 mg/kg, IG measured at 10 to 240 mins by LC-MS/MS analysis
# Type: ADME, organism-based
# conditionParameters: po, time 10-240 min
readoutKind: Tmax (min)
Field: numeric (min). Do not append units.

**Query** Requested read-out: Tmax. Entry: CCCc1ccc(C(=O)Nc2cnc3ccccc3c2N2CCN(Cc3ccccc3)CC2)cc1
**Result** 22

----------
# target: Cholinesterase (Equus caballus)
# Sequence (P81908 whole entry): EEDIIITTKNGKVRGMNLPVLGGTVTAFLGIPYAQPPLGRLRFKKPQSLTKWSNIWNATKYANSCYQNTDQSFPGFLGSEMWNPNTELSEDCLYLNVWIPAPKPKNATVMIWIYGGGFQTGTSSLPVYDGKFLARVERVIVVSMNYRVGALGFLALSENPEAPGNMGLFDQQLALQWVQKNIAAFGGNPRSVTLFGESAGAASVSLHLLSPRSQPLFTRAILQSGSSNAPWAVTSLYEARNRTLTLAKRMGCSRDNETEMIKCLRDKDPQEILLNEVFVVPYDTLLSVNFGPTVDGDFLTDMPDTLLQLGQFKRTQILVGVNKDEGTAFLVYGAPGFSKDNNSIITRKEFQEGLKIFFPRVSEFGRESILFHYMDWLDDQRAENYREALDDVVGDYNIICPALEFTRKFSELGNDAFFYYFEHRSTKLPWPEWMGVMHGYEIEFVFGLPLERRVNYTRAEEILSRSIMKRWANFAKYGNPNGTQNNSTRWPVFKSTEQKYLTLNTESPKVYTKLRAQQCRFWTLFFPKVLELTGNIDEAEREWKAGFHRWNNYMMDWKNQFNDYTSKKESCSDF
# assayOverview: Inhibition of equine serum BChE using BTC as substrate incubated for 2 mins by Ellman's method
readoutKind: pIC50
Value format note: pIC50 is -log10 of concentration (mol/L); just state the number.

Past entries and their recorded results:
INSERT INTO measurements (smilesstring, readoutkind, val) VALUES
  ('O=C(Nc1cnc2ccccc2c1N1CCN(Cc2ccccc2)CC1)c1ccc(Cl)cc1Cl', 'pIC50', 6.64),
  ('O=C(Nc1cnc2ccccc2c1N1CCN(Cc2ccccc2)CC1)c1ccc(F)cc1', 'pIC50', 5.48),
  ('O=C(CCc1ccccc1)Nc1cnc2ccccc2c1N1CCN(Cc2ccccc2)CC1', 'pIC50', 6.36),
  ('O=C(Nc1cnc2ccccc2c1N1CCN(Cc2ccccc2)CC1)c1ccc(F)cc1F', 'pIC50', 6.34),
  ('CCCc1ccc(C(=O)Nc2cnc3ccccc3c2N2CCN(Cc3ccccc3)CC2)cc1', 'pIC50', 7.22),
  ('Cc1cccc(C(=O)Nc2cnc3ccccc3c2N2CCN(Cc3ccccc3)CC2)c1', 'pIC50', 6.44);

**Query** // pIC50 lookup, key: O=C(Nc1cnc2ccccc2c1N1CCN(Cc2ccccc2)CC1)c1ccccc1Cl
**Result** 6.74

**Query** I would be grateful if you could share the reported pIC50 for Cc1ccc(C(=O)Nc2cnc3ccccc3c2N2CCN(Cc3ccccc3)CC2)c(C)c1 .
**Result** 6.40

**Query** Request the reported pIC50 associated with O=C(Nc1cnc2ccccc2c1N1CCN(Cc2ccccc2)CC1)c1ccc([N+](=O)[O-])c([N+](=O)[O-])c1
**Result** 5.04

**Query** Find the recorded pIC50 belonging to N#Cc1ccc(C(=O)Nc2cnc3ccccc3c2N2CCN(Cc3ccccc3)CC2)cc1 and report it.
**Result** 5.12

**Query** Please report the recorded pIC50 for Cc1ccccc1C(=O)Nc1cnc2ccccc2c1N1CCN(Cc2ccccc2)CC1 .
**Result** 5.65

**Query** # get_value(readout='pIC50', item= O=C(Nc1cnc2ccccc2c1N1CCN(Cc2ccccc2)CC1)c1ccc([N+](=O)[O-])cc1 )
**Result** 6.15

**Query** Given the molecule O=C(Nc1cnc2ccccc2c1N1CCN(Cc2ccccc2)CC1)c1ccccc1 , what is its reported pIC50?
**Result** 5.51
